molecular target: CfEcR-DEF mutant L223Y (Choristoneura fumiferana, UniProt O77255, L506Y); assay: GAL4-driven luciferase reporter assay in NIH3T3 cells
property.label: EC50
Field note: include the unit after the figure.

Task item: Please look up its EC50: CCc1c(OC)cccc1C(=O)NN(C(=O)c1cc(C)cc(C)c1)C(C)(C)C [RG-102240]
Reply: 3150 nM

Task item: Please look up its EC50: CCc1c(C(=O)NN(C(=O)c2cc(OC)c(C)c(OC)c2)C(C=C(C)C(C)(C)C)C(C)(C)C)ccc2c1OCCO2 (stereo not drawn) [RG-115898]
Reply: 330 nM

Task item: Please look up its EC50: CCCCC(N(NC(=O)c1ccc(CC)cc1)C(=O)c1cc(C)cc(C)c1)C(C)(C)C (stereo not drawn) [RG-115840]
Reply: 580 nM
